Each recorded value in this set is attributed to the supplement of paper PMC9170038.

System: K4 kissing-loop RNA reporter;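 note: bound reporter read as fluorescence of individual clusters on recovered sequencing chips by microscopy, with normalized cluster intensities fitted with a binding model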
Assay: apparent KD of K4 kissing-loop reporter; higher = weaker reporter binding
Details: Eterna round: R107; input ligand: arginine 13.2 mM
Recorded apparent KD of K4 kissing-loop reporter by entry
Value kind: apparent KD of K4 kissing-loop reporter (nM)

Item sequence: ACGAAUCCAGCGGCCGCCACUAUUCGAUGAGUGAUGUUUAGGAGUAGAUCAUACCGCCGUGGUAAUAGGACCGGGCUCUUUGUAG [theeternabot_exclusion_KL_Trp_B_36]
Value kind: apparent KD of K4 kissing-loop reporter
Recorded measurement: 129
--
Item sequence: UGUACCGAGUCAGGAUAUAGCGUCGAAAGACGAAAUGGAGUGAUGUUCCUUAAACUGCGAAAGCAGCUAGAAGGGACUUGGUACU [FmnBS 28 #SwitchBubble #StaticStem #DoubleMagnetSystem]
Value kind: apparent KD of K4 kissing-loop reporter
Recorded measurement: 234
--
Item sequence: UUGAGCCUGACGAAAGUCAGGCUCUGCGAGCGAGGACCGGUACGGCCGCCACUCGGUGCAGUGAUGUUGCAUGGCCGCAAGGCCG [#2 Exclusion - Tryptophan A Attempt #14 (HarryS)]
Value kind: apparent KD of K4 kissing-loop reporter
Recorded measurement: 300
--
Item sequence: GCAGGACGAUGAGGAGGAUGAAUUACUGAAGGAGCGCAUAUGGUUGCAGGUAGGUCGCGGUGAACAAGUAUAGUGAUGUUAUAUC [SSArgA.R]
Value kind: apparent KD of K4 kissing-loop reporter
Recorded measurement: 179
--
Item sequence: AAUAACUUGCAGUGAUGUUGCAAGAAAUCUCAGGAUAUCAGGAAACUGAGAAGGGAGUAUCCUGAGUAAACAUCACAUCUUAGGA [KL-SSFMN-A8]
Value kind: apparent KD of K4 kissing-loop reporter
Recorded measurement: 364
--
Item sequence: AGUGAUGUUGUGUUAUCUUAGUGAAGUGAUCGAGGACCGGUACGGCCGCCACUCGAGUGAUGAGUGAGUGAUGUUUGUUUAGGGA [vvbmullin]
Value kind: apparent KD of K4 kissing-loop reporter
Recorded measurement: 673

###

Test system: MS2 coat protein
Experiment: apparent KD of MS2 coat protein; designed switch direction (-1 OFF switch, 1 ON switch): 1; higher = weaker reporter binding
Conditions: input ligand: FMN 200 uM

Item sequence: UGGCUCAGAGCAGGAUAUACGUGGUCACAUGAGGAUCACCCAUGUCUCGAGCUUCGGCUCGAGGCGUAGAAGGGCUCUGAGCCA [SSNG2/6-B2] (Eterna round: R96, puzzle: Same State NG 2)
apparent KD of MS2 coat protein, nM: 110
--
Item sequence: GGCGAAUAAACAUGAGGAUCACCCAUGUAGCGGAGACGCAAUGAGGAUAUCGAUGGGUUUCCCGUCGAGAAGGCAUGGGUCGCC [JL SSNG3 3.93 mod 1] (Eterna round: R96, puzzle: Same State NG 3)
apparent KD of MS2 coat protein, nM: 20.8
--
Item sequence: UUCGAGUAGCAAGGAUAUCUUAUUUAGAUUUUAAGAGAAGGUGCUUAUUAGAAACAUGAGGAUCACCCAUGUAUUACUUCUUAU [JR_SSNG1_Sub066] (Eterna round: R96, puzzle: Same State NG 1)
apparent KD of MS2 coat protein, nM: 14.1
--
Item sequence: UAAGUCAUGUAAGGAUAUGCAGCCGAAACGGCUGCAGAAGGUACUAUAAUUACAUGAGGAUCACCCAUGUUAUAAAAUUUAAAU [Mat - Same State NG 1 - JL mod - D78] (Eterna round: R96, puzzle: Same State NG 1)
apparent KD of MS2 coat protein, nM: 24.1
--
Item sequence: GGAAUAUGAUGUUACAUGAGGAUCACCCAUGUAGUGAUAACUAAGGAUAUUUGAAAGGAAGGAGAAGAGAAGGUAGGAUCAUAA [AK SSNG3-V2-12] (Eterna round: R96, puzzle: Same State NG 3)
apparent KD of MS2 coat protein, nM: 50.9
--
Item sequence: UCAAGAUCGCGAGGAUAUCGCGAGGAUCACCCGUGAGAAGGCGCAGAGCCGAGGAUCACCCGGCUGAUCCUGAGGAGGAGGUAA (Eterna round: R96, puzzle: Same State NG 1)
apparent KD of MS2 coat protein, nM: 139
--
Item sequence: UCAGUCAUGUAAGGAUAUGCAGCCGAAACGGCUGCAGAAGGUACUAUAAUUACAUGAGGAUCACCCAUGUUAUAAAAUUUAUAU [Mat - Same State NG 1 - JL mod - D64] (Eterna round: R96, puzzle: Same State NG 1)
apparent KD of MS2 coat protein, nM: 24.4
--
Item sequence: AAAACAUGACGAGGAUAUGGUACAUGAGGAUCACCCAUGUAUGUACCACGACGCGUACGUCGAAUCCAGAAGGCGUCGUGAAAA [Mat - Same State NG 2 - JL mod - D19] (Eterna round: R96, puzzle: Same State NG 2)
apparent KD of MS2 coat protein, nM: 20.3
--
Item sequence: UUGAUGAACUGAGGAUAUCGAGUCGUCUGAUUAUACAUGAGGAUCACCCAUGUGGGUUGUGGUAUCGAGAAGGCAGAUUACUUA [JR_SSNG2_Sub032] (Eterna round: R96, puzzle: Same State NG 2)
apparent KD of MS2 coat protein, nM: 82.8
--
Item sequence: UCAAUCAUGUAAGGAUAUGCAGCCGAAACGGCUGCAGAAGGUACUAUAAUUACAUGAGGAUCACCCAUGUUAUAAAAUUAAAAU [Mat - Same State NG 1 - JL mod - D69] (Eterna round: R96, puzzle: Same State NG 1)
apparent KD of MS2 coat protein, nM: 35.3
--
Item sequence: AUAACAAUGGCAGGAUAUGGGAUUGGAAGUGUUCCAGAAGGGCCAUAACGGCGAUGGACAUGAGGAUCACCCAUGUCUUAGCCU [MOD2 Powerstrip SSNG 1.4] (Eterna round: R96, puzzle: Same State NG 1)
apparent KD of MS2 coat protein, nM: 14.3
--
Item sequence: CUCAACAACACAGGAUAUCCAGGUAAAAGACCUGGAGAAGGGUGACCAACAUGAGGAUCACCCAUGUGACAGCCAGGCUGUCUG [Isbitiqu] (Eterna round: R96, puzzle: Same State NG 1)
apparent KD of MS2 coat protein, nM: 87.8
--
Item sequence: AUUUUUAAUGCAGGAUAUGAUUAACAUGAGGAUCACCCAUGUGGUGUUGUGAGUAAGGAGAGUGAUCAGAAGGGCAUUUCUUUU [JMF's solution 82] (Eterna round: R96, puzzle: Same State NG 2)
apparent KD of MS2 coat protein, nM: 593
--
Item sequence: GCGGACCUGACAUGAGGAUCACCCAUGUUGCGGAGACGCAAUGAGGAUAUCGAUGGGUUUCCCGUCGAGAAGGCAUAAAUCCGC [JL SSNG3 3.93 mod 3] (Eterna round: R96, puzzle: Same State NG 3)
apparent KD of MS2 coat protein, nM: 15.1
--
Item sequence: GGAGCCAAGGCAGGAUAUUCAUUUAAAUAAACAUGAGGAUCACCCAUGUAGGCCAGAAGGCCUUGGGAGAAGGGCCAUGGCUCG [Xeonanis - 13 mod7] (Eterna round: R96, puzzle: Same State NG 2)
apparent KD of MS2 coat protein, nM: 17.7
--
Item sequence: UGACACACGGCAGGAUAUCGUUAGCAAAGCUAACGAGAAGGGCCUCAUGUCGUGGAAACGUGACAUGAGGAUCACCCAUGUUGC [Omei SS(NG)1 Cv10] (Eterna round: R96, puzzle: Same State NG 1)
apparent KD of MS2 coat protein, nM: 204
--
Item sequence: AAAAUGGCAUGUUACAUGAGGAUCACCCAUGUGCCGUCAACUGAGGAUAUGGUGCUGUAGAAGAAUCAGAAGGUAGUCAUUUAA [AK SSNG3-V2-27] (Eterna round: R96, puzzle: Same State NG 3)
apparent KD of MS2 coat protein, nM: 22.6
--
Item sequence: GAGAGAGGGUGAGGAUAUUUAGUGAUAAUGAUGGGAGAAGGCACAGACAUGAGGAUCACCCAUGUGGGAAUAAUCCAGAGAGAG [Parity 10 - Jieux - Same State NG 1] (Eterna round: R96, puzzle: Same State NG 1)
apparent KD of MS2 coat protein, nM: 145

###

Tested on: MS2 coat protein
Test: apparent KD of MS2 coat protein; designed switch direction (-1 OFF switch, 1 ON switch): -1; higher = weaker reporter binding
Details: input ligand: FMN 200 uM
Decision: apparent KD of MS2 coat protein compared against 20 nM; not below it gives yes (1), below it gives no (0).

Item sequence: GCACGGAGUGUAGGAUAUCUGUGCGAUUAGCUCAGAGAAGGACACAUGAGGAUCACCCAUGUGUAACAACACAAUAAUCCGUGC [Eli exng1 - 072] (Eterna round: R96, puzzle: Exclusion NG 1)
Category label: no (0)
//
Item sequence: GUUGUAUGAGGAUAUACAUGAGGAUCACCCAUGUGUGUUGUGAACGACGUACGUUUAUGUAGAAGGCGUGCGGC [-24.9, -21.8 kcal, 24% A] (Eterna round: R97, puzzle: Exclusion 3)
Category label: no (0)
//
Item sequence: UUAAUGUCAGGAUAUGCUUAAUAUAUUUUAUUAUAAUAUAUACAUGAGGAUCACCCAUGUAGAAGGGACAUUAU [LRO-Excl2-04-Fireball XL5] (Eterna round: R97, puzzle: Exclusion 2)
Category label: yes (1)
//
Item sequence: GCAAGCUUUUGCUCGUCUUACAUGAGGAUCACCCAUGUCGGGUGCUUGCUUGCGUCCGGCGUCUGGGCCGUGGCGGU [-31.9, -55.1 kcal, A 10%] (Eterna round: R97, puzzle: Sensor, turn-off variant 1)
Category label: yes (1)
//
Item sequence: ACAUGUUGUCCAUGAUAUUACAUGAGGAUCACCCAUGUUAUUGCGAUUUUGAUGUGUAAGUUUGUUGCUCGUCUUAU [JR_STOV1_Sub062] (Eterna round: R97, puzzle: Sensor, turn-off variant 1)
Category label: yes (1)
//
Item sequence: ACGCCUAUAGUGAGGAUAUUGCGGGUAGGUAUUUGCAAGAAGGCACUUGAGGAUCACCCAAGUGAAGAAGUUGC [Geusra] (Eterna round: R97, puzzle: Brourd's mod of Exclusion 4)
Category label: no (0)
//
Item sequence: AUAUUAAUAGUAAGGAUAUGCGUAUAUAUAAUUAUGCAGAAGGUACAUGAGGAUCACCCAUGUAUUAAUGUGUA [LRO-BmodExc4-02-Oppy's Opus] (Eterna round: R97, puzzle: Brourd's mod of Exclusion 4)
Category label: no (0)
//
Item sequence: GGUCAGAUGGUAGGAUAUCCAUAUCGAGUGACCCUUUCAUAACAUGAGGAUCACCCAUGUCGGUGGGAGAAGGGCCGUACGGCG [salish99_ExNG02_R04_010] (Eterna round: R96, puzzle: Exclusion NG 2)
Category label: yes (1)
//
Item sequence: CUGAGUAGUCAGGAUAUGCUGUACAAAAGUACAGCAGAAGGGAUUACAUGAGGAUCACCCAUGUGUACUUCAUG [)mei Ex6 B20] (Eterna round: R97, puzzle: Exclusion 6)
Category label: yes (1)
//
Item sequence: AUAAUGUGAGGAUAUCAGUCGACUAGCCUCGGCUAGUCGACUGAGAAGGUACAUGAGGAUCACCCAUGUAGAUC [E4/20-A2] (Eterna round: R97, puzzle: Exclusion 4)
Category label: yes (1)
//
Item sequence: AAUUAGUGAGGAUAUACUAACAGUGAUAGUAGAUAGUGGAUGUAGAAGGCACAUGAGGAUCACCCAUGUUAUAA [EX4 #51] (Eterna round: R97, puzzle: Exclusion 4)
Category label: yes (1)
//
Item sequence: CCGCUCCGUGUAGGAUAUUGGCGUGCCCUGCGCCGAGAAGGACAUGAGGAUCACCCAUGUAUGUUAUUAUCACGCGUGGCGCAU [Design 77] (Eterna round: R96, puzzle: Exclusion NG 1)
Category label: yes (1)
//
Item sequence: UUGGACGGAGGAUAUGCAGCGAGUAAUACGAUCGAUCCAAAACAUGAGGAUCACCCAUGUAGAAGGCUGACCAA [Eternabot (L1) Solution 11] (Eterna round: R97, puzzle: Exclusion 2)
Category label: yes (1)
//
Item sequence: GCACGGAAUGUAGGAUAUUAGUGCGAUUAGCACUGAGAAGGACAUGAGGAUCACCCAUGUAACUCAAUAAUAAACCUUCCGUGC [Eli exng1 - 045] (Eterna round: R96, puzzle: Exclusion NG 1)
Category label: no (0)
//
Item sequence: CUCCUCAUGACGCCUAAACACAUGAGGAUCACCCAUGUACAGGCUUUUUGUCGUCUUAUAAUAAAACCGAGGAUACG [Orlaorusti] (Eterna round: R96, puzzle: Sensor v3, turn-off variant 1)
Category label: no (0)
//
Item sequence: UGUAUACGAGGAUAUACAUGAGGAUCACCCAUGUGGACGUUGGAGAACGGCCCUCGUAGUAGAAGGCGUAUGAG [Eternabot (L2) Solution 53] (Eterna round: R97, puzzle: Exclusion 3)
Category label: yes (1)
//
Item sequence: CUAAAUCAUGUAGGAUAUGCGUAGCAAAGCUAUGCAGAAGGACAUGAGGAUCACCCAUGUCAUUCCGUCUGGAGACAGACGGGA [Mat - Exclusion NG 1 - Mod of JL - D55] (Eterna round: R96, puzzle: Exclusion NG 1)
Category label: yes (1)
//
Item sequence: GCAGUAUGAGUUAGGAUAUGAUGAUUUUUAUUAAAUCAGAAGGAACUUGAGGAUCACCCAAGUAAAGAAUUGGU [JR_BMEx4_Sub069] (Eterna round: R97, puzzle: Brourd's mod of Exclusion 4)
Category label: yes (1)
